All values here come from patent US20070254891A1.

# assay_overview: pKa determination (Sirius GlpKa, potentiometric and UV)
# Type: physicochemical
# condition_parameters: MeOH:H2O mixtures, extrapolated to 0% co-solvent; potentiometric determination in MeOH/water, Yasuda-Shedlovsky extrapolation; read-out: pKa (basic)
outcome_measure: pKa
The reply should be a number, written without any unit.

Lookup: Give the measured pKa of Cc1cc2c(-c3ccccc3F)nc(N3CCNCC3)nc2s1.Cl [Form I, hydrochloride] .
Found: 8.64

---

# assay_overview: LogP / LogPion / LogD by potentiometric titration (octanol:ISA water)
# Type: physicochemical
# condition_parameters: 1-octanol / 0.15M KCl (aq); 0.15M KCl(Aq) / 1-octanol
outcome_measure: logP
The reply should be a number, written without any unit.

Lookup: Give the measured logP of Cc1cc2c(-c3ccccc3F)nc(N3CCNCC3)nc2s1.Cl [Form I, hydrochloride] .
Found: 3.96

---

# assay_overview: pKa determination (Sirius GlpKa, potentiometric and UV)
# Type: physicochemical
# condition_parameters: aqueous solution; UV spectroscopy (D-PAS attachment); read-out: pKa of second basic centre
outcome_measure: pKa
The reply should be a number, written without any unit.

Lookup: Give the measured pKa of Cc1cc2c(-c3ccccc3F)nc(N3CCNCC3)nc2s1.Cl [Form I, hydrochloride] .
Found: 0.81

---

# assay_overview: LogP / LogPion / LogD by potentiometric titration (octanol:ISA water)
# Assay type: physicochemical
# condition_parameters: octanol/ISA water, pH 7.4
outcome_measure: logD
The reply should be a number, written without any unit.

Lookup: Give the measured logD of Cc1cc2c(-c3ccccc3F)nc(N3CCNCC3)nc2s1.Cl [Form I, hydrochloride] .
Found: 2.72

---

# assay_overview: Aqueous solubility with pH measurement
# Format: physicochemical
# condition_parameters: water, 25 °C, thermodynamic from solid, read-out: Aqueous solubility (as the hydrochloride)
outcome_measure: solubility at 24 h (µg/mL)
Just the number please, in µg/mL, no unit attached.

Lookup: Give the measured solubility at 24 h of Cc1cc2c(-c3ccccc3F)nc(N3CCNCC3)nc2s1.Cl [Form I] .
Found: 2100
